- Assay target: T1, HpNikR WT (Helicobacter pylori G27 (from vector …, UniProt A1YSQ9 1-148))
- T1 sequence: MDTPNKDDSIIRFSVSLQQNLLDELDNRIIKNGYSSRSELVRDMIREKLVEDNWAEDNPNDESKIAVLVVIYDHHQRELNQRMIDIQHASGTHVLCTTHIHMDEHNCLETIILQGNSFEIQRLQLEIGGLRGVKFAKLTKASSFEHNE
- Assay info: fluorescence anisotropy; apo (no Ni); FA: 5 nM DNA, 20 mM Tris pH 7.6, 100 mM NaCl, 3 mM MgSO4, temperature not stated (Ni loading 1.2 eq NiSO4 per monomer at RT). EMSA: 20 mM Tris pH 7.5, 100 mM KCl, 3 mM MgCl2, 0.1% IGEPAL, 5% glycerol, 0.1 mg/ml herring sperm DNA, RT; gel with 800 uM NiSO4 at 4 C
- Cond: protein: recombinant; tags: none stated (untagged purification); chain copies: 4; label: fluorescein on internal thymine (T14 of strand 1); blunt
Endpoint name: pKd
Keep in mind that pKd stands for -log10 of concentration in molar terms.

[[record]]
binder = "ureA-perf promoter 32 bp (dsDNA) DNA 1: ATATATTATTAATTCATTTTAAATAATAATTA DNA 2: TAATTATTATTTAAAATGAATTAATAATATAT"
readout_value = 5.39


Let's switch to this binder now.
# query: pKd of entry ureA promoter 32 bp (FA) (dsDNA) DNA 1: ATATAACACTAATTCATTTTAAATAATAATTA DNA 2: TAATTATTATTTAAAATGAATTAGTGTTATAT
5.31
